Species: Mus musculus
Test: Selectivity ratio of Ki for mouse KOR to Ki for mouse MOR
readout type: Ratio Ki
Keep the answer to the number alone.

Solved cases below.
{"columns": ["structure", "Ratio Ki"],
 "data": [
  ["COc1cc2cnc(C(=O)N[C@H]3CC[C@@]4(O)[C@H]5Cc6ccc(O)c7c6[C@@]4(CCN5CC4CC4)[C@H]3O7)cc2cc1OC", 5.2],
  ["O=C(CNC(=O)c1cc2ccccc2cn1)N[C@H]1CC[C@@]2(O)[C@H]3Cc4ccc(O)c5c4[C@@]2(CCN3CC2CC2)[C@H]1O5", 3.4],
  ["CN1Cc2ccccc2C[C@H]1C(=O)N[C@H]1CC[C@@]2(O)[C@H]3Cc4ccc(O)c5c4[C@@]2(CCN3CC2CC2)[C@H]1O5", 3.2],
  ["CN(C)c1ccc2cc(C(=O)N[C@H]3CC[C@@]4(O)[C@H]5Cc6ccc(O)c7c6[C@@]4(CCN5CC4CC4)[C@H]3O7)ncc2c1", 16]
]}

--- query ---
Request the reported Ratio Ki associated with O=C(N[C@H]1CC[C@@]2(O)[C@H]3Cc4ccc(O)c5c4[C@@]2(CCN3CC2CC2)[C@H]1O5)c1cc2cc([N+](=O)[O-])ccc2cn1
16

----------
Target: UniProt P42866
Test: Stimulation of mouse MOR expressed in CHO cells after […] by [35S]GTPgammaS binding assay
readout type: EC50 (nM)
Write the answer as a number in nM, unit excluded.

As a guide, the following entries are already answered.
{"columns": ["compound", "EC50 (nM)"],
 "data": [
  ["CN(C)c1ccc2c(c1)CN(C)C(C(=O)N[C@H]1CC[C@@]3(O)[C@H]4Cc5ccc(O)c6c5[C@@]3(CCN4CC3CC3)[C@H]1O6)C2 (stereo not given in full)", 11.4],
  ["COc1cc2cnc(C(=O)N[C@H]3CC[C@@]4(O)[C@H]5Cc6ccc(O)c7c6[C@@]4(CCN5CC4CC4)[C@H]3O7)cc2cc1OC", 85.2],
  ["O=C(N[C@H]1CC[C@@]2(O)[C@H]3Cc4ccc(O)c5c4[C@@]2(CCN3CC2CC2)[C@H]1O5)c1cc2ccc([N+](=O)[O-])cc2cn1", 42.7],
  ["CN(C)c1ccc2cc(C(=O)N[C@H]3CC[C@@]4(O)[C@H]5Cc6ccc(O)c7c6[C@@]4(CCN5CC4CC4)[C@H]3O7)ncc2c1", 4.7]
]}

Let's switch to this compound now.
Reported EC50, compound O=C(N[C@H]1CC[C@@]2(O)[C@H]3Cc4ccc(O)c5c4[C@@]2(CCN3CC2CC2)[C@H]1O5)c1cc2cc([N+](=O)[O-])ccc2cn1 : ____
31.5

----------
Examples of compounds with documented Emax follow.
Target: UniProtKB P42866
Assay: Stimulation of mouse MOR expressed in CHO cells after […] by [35S]GTPgammaS binding assay relative to DAMGO
Assay type: functional, cell-based
The reply should be a number in %, with the unit left off.

Here is how some compounds turned out for Emax.
{"columns": ["compound", "u", "Emax"],
 "data": [
  ["CN(C)c1ccc2cc(C(=O)N[C@H]3CC[C@@]4(O)[C@H]5Cc6ccc(O)c7c6[C@@]4(CCN5CC4CC4)[C@H]3O7)ncc2c1", "%", 6.32],
  ["O=C(N[C@H]1CC[C@@]2(O)[C@H]3Cc4ccc(O)c5c4[C@@]2(CCN3CC2CC2)[C@H]1O5)c1cc2cc([N+](=O)[O-])ccc2cn1", "%", 12.5],
  ["COc1cc2cnc(C(=O)N[C@H]3CC[C@@]4(O)[C@H]5Cc6ccc(O)c7c6[C@@]4(CCN5CC4CC4)[C@H]3O7)cc2cc1OC", "%", 14]
]}

Recall the recorded Emax for CN(C)c1ccc2c(c1)CN(C)C(C(=O)N[C@H]1CC[C@@]3(O)[C@H]4Cc5ccc(O)c6c5[C@@]3(CCN4CC3CC3)[C@H]1O6)C2 (stereo not given in full) with UniProtKB P42866 and state it.
26.2

Please answer likewise for O=C(N[C@H]1CC[C@@]2(O)[C@H]3Cc4ccc(O)c5c4[C@@]2(CCN3CC2CC2)[C@H]1O5)c1cc2ccc([N+](=O)[O-])cc2cn1
13.4
